tested on: DU145 prostate cancer cells; assay: High content imaging-based screen (Cellomics) for lysosome migration inhibitors; type: cell-based; settings: pH 6.4 media, 2 micrograms per ml, 16 hours
measured.property: hit in screen for lysosome migration inhibitors (mean ring spot count)

Here is how some compounds turned out for hit in screen for lysosome migration inhibitors (mean ring spot count).
compound	result
COc1ccc2c(c1)[nH]c1c(C)nccc12 [harmine]	hit
CN1CCC(=C2c3ccccc3CCc3sccc32)CC1 [pizotifen]	hits
COc1cc2c(c(OC)c1OC)-c1ccc(OC)c(=O)cc1[C@@H](NC(C)=O)CC2 [colchicine]	hits
CC[C@]1(O)C[C@H]2CN(CCc3c([nH]c4ccccc34)[C@@](C(=O)OC)(c3cc4c(cc3OC)N(C=O)[C@H]3[C@@](O)(C(=O)OC)[C@H](OC(C)=O)[C@]5(CC)C=CCN6CC[C@]43[C@@H]65)C2)C1 [vincristine]	hits
CC[C@]1(O)C[C@@H]2CN(CCc3c([nH]c4ccccc34)[C@@](C(=O)OC)(c3cc4c(cc3OC)N(C)[C@H]3[C@@](O)(C(N)=O)[C@H](O)[C@]5(CC)C=CCN6CC[C@]43[C@@H]65)C2)C1 [vindesine]	hits
COC(=O)Nc1nc2ccc(C(=O)c3ccccc3)cc2[nH]1 [mebendazole]	hits

Let us move to another entry and its hit in screen for lysosome migration inhibitors (mean ring spot count).
For reference, reported hit in screen for lysosome migration inhibitors (mean ring spot count) for O=C(Nc1ccc([N+](=O)[O-])cc1Cl)c1cc(Cl)ccc1O [niclosamide] stands at hits
